Tested on: Escherichia coli TOP10
Test: shrunken log2 fold change of peptide-encoding DNA abundance (4.5 h post-induction vs induction); higher = less antimicrobial activity (less host growth inhibition)
Conditions: time post-induction: 4.5 h; library: site-saturation at positions 5, 18, 19, 20
Quantity: shrunken log2 fold change

Input sequence	Quantity	Test result
RRIRPRPPRLPRPRPRPCAEPRP	shrunken log2 fold change	0.27
RRIRYRPPRLPRPRPRPIWMPRP	shrunken log2 fold change	-0.0399
RRIRERPPRLPRPRPRPFMGPRP	shrunken log2 fold change	-0.0195
RRIRKRPPRLPRPRPRPRMYPRP	shrunken log2 fold change	0.155
RRIRPRPPRLPRPRPRPTCLPRP	shrunken log2 fold change	-0.105
RRIRLRPPRLPRPRPRPVEFPRP	shrunken log2 fold change	0.0713
RRIRARPPRLPRPRPRPKINPRP	shrunken log2 fold change	-0.0292
RRIRSRPPRLPRPRPRPHNLPRP	shrunken log2 fold change	-0.33
RRIRWRPPRLPRPRPRPKWAPRP	shrunken log2 fold change	0.507
RRIRYRPPRLPRPRPRPVDKPRP	shrunken log2 fold change	-0.00804
RRIRWRPPRLPRPRPRPFSHPRP	shrunken log2 fold change	-0.241
RRIRGRPPRLPRPRPRPTGFPRP	shrunken log2 fold change	1.23
RRIRHRPPRLPRPRPRPMWIPRP	shrunken log2 fold change	-0.0176
RRIRERPPRLPRPRPRPTYSPRP	shrunken log2 fold change	-0.578
RRIRGRPPRLPRPRPRPVMSPRP	shrunken log2 fold change	0.401
RRIRDRPPRLPRPRPRPIMEPRP	shrunken log2 fold change	0.594
RRIRMRPPRLPRPRPRPIKIPRP	shrunken log2 fold change	-0.0554
RRIRCRPPRLPRPRPRPEYNPRP	shrunken log2 fold change	-0.243
RRIRWRPPRLPRPRPRPTNRPRP	shrunken log2 fold change	-0.018
RRIRMRPPRLPRPRPRPNLKPRP	shrunken log2 fold change	0.158
RRIRDRPPRLPRPRPRPPYKPRP	shrunken log2 fold change	-0.1
RRIRARPPRLPRPRPRPGFTPRP	shrunken log2 fold change	0.204
RRIRHRPPRLPRPRPRPCTSPRP	shrunken log2 fold change	-0.0185
RRIRRRPPRLPRPRPRPILWPRP	shrunken log2 fold change	0.0428
RRIRTRPPRLPRPRPRPPDKPRP	shrunken log2 fold change	-0.146
RRIRMRPPRLPRPRPRPKKWPRP	shrunken log2 fold change	0.962
RRIRGRPPRLPRPRPRPTRKPRP	shrunken log2 fold change	1.12
RRIRLRPPRLPRPRPRPWYFPRP	shrunken log2 fold change	-0.231
RRIRSRPPRLPRPRPRPSSRPRP	shrunken log2 fold change	-0.288
RRIRCRPPRLPRPRPRPVEAPRP	shrunken log2 fold change	0.338
RRIRARPPRLPRPRPRPDFIPRP	shrunken log2 fold change	-0.0493
RRIRTRPPRLPRPRPRPAWRPRP	shrunken log2 fold change	0.594

====

System: Escherichia coli TOP10;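 note: peptides expressed intracellularly from a pBAD plasmid library in pooled LB shake-flask culture, induced with 0.3% L-arabinose, DNA abundance read by NGS, three biological replicates, DESeq2 with apeglm shrinkage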
Assay: shrunken log2 fold change of peptide-encoding DNA abundance (4.5 h post-induction vs induction); higher = less antimicrobial activity (less host growth inhibition)
Conditions: time post-induction: 4.5 h; library: site-saturation at positions 5, 18, 19, 20
We begin with a simple list: items and their reported shrunken log2 fold change.
Quantity: shrunken log2 fold change

Input sequence	Quantity	Test result
RRIRGRPPRLPRPRPRPHQEPRP	shrunken log2 fold change	0.305
RRIRLRPPRLPRPRPRPDCTPRP	shrunken log2 fold change	0.0972
RRIRGRPPRLPRPRPRPLQCPRP	shrunken log2 fold change	0.904
RRIRRRPPRLPRPRPRPRFIPRP	shrunken log2 fold change	0.00289
RRIRMRPPRLPRPRPRPTKSPRP	shrunken log2 fold change	0.459
RRIRHRPPRLPRPRPRPWLCPRP	shrunken log2 fold change	0.111
RRIRERPPRLPRPRPRPLGTPRP	shrunken log2 fold change	-0.0681
RRIRWRPPRLPRPRPRPKFDPRP	shrunken log2 fold change	-0.0572
RRIRYRPPRLPRPRPRPHCEPRP	shrunken log2 fold change	-0.00822
RRIRYRPPRLPRPRPRPQLHPRP	shrunken log2 fold change	-0.395
RRIRSRPPRLPRPRPRPHGNPRP	shrunken log2 fold change	-0.00459
RRIRDRPPRLPRPRPRPDGEPRP	shrunken log2 fold change	-0.0121
RRIRCRPPRLPRPRPRPMDIPRP	shrunken log2 fold change	0.00412
RRIRYRPPRLPRPRPRPNYRPRP	shrunken log2 fold change	-0.306
RRIRCRPPRLPRPRPRPHGYPRP	shrunken log2 fold change	-0.108
